From: ChEMBL document CHEMBL4613327

Organism: Homo sapiens
Assay: Selectivity index, ratio of Ki for inhibition of human CA2 to Ki for inhibition of human CA4
Parameter: Ratio Ki

// field: Ratio Ki; key: `CCN(CC(=O)N(CCc1ccc(S(N)(=O)=O)cc1)Cc1ccccc1)Cc1ccccc1` ; value = < 0.04

// field: Ratio Ki; key: `CCCCCCN(CCCCCC)CC(=O)N(CCc1ccc(S(N)(=O)=O)cc1)Cc1ccccc1` ; value = < 0.02

// field: Ratio Ki; key: `N#CCCN(CCc1ccccc1)CC(=O)N(CCc1ccccc1)CCc1ccc(S(N)(=O)=O)cc1` ; value = < 0.04

// field: Ratio Ki; key: `NS(=O)(=O)c1ccc(CCN(Cc2ccccc2)C(=O)CN(Cc2ccccc2)Cc2ccccc2)cc1` ; value = < 0.04

// field: Ratio Ki; key: `CCCCCCCCN(CCCCCCCC)CC(=O)N(CCc1ccc(S(N)(=O)=O)cc1)Cc1ccccc1` ; value = < 0.08

// field: Ratio Ki; key: `CCCCCCCCN(CCCCCCCC)CCC(=O)N(CCc1ccc(S(N)(=O)=O)cc1)Cc1ccccc1` ; value = < 0.08

// field: Ratio Ki; key: `CCCCCN(CCCCC)CC(=O)N(CCc1ccc(S(N)(=O)=O)cc1)Cc1ccccc1` ; value = < 0.01

// field: Ratio Ki; key: `CCCCCCN(CCCCCC)CC(=O)N(CCc1ccc(S(N)(=O)=O)cc1)Cc1ccc2ccccc2c1` ; value = < 0.5

----------
Species: Homo sapiens
Assay: Selectivity index, ratio of Ki for inhibition of human CA1 to Ki for inhibition of human CA4
Parameter: Ratio Ki

Consider the following illustrative entries.
CCCCCCN(CCCCCC)CC(=O)N(CCc1ccc(S(N)(=O)=O)cc1)Cc1ccc2ccccc2c1    < 0.05
CCCCCCCCN(CCCCCCCC)CC(=O)N(CCc1ccc(S(N)(=O)=O)cc1)Cc1ccccc1    < 0.09
CCCCCN(CCCCC)CC(=O)N(CCc1ccc(S(N)(=O)=O)cc1)Cc1ccccc1    < 0.05

// field: Ratio Ki; key: `N#CCCN(CCc1ccccc1)CC(=O)N(CCc1ccccc1)CCc1ccc(S(N)(=O)=O)cc1` ; value = < 0.08

// field: Ratio Ki; key: `CCCCCCN(CCCCCC)CC(=O)N(CCc1ccc(S(N)(=O)=O)cc1)Cc1ccccc1` ; value = < 0.09

// field: Ratio Ki; key: `CCN(CC(=O)N(CCc1ccc(S(N)(=O)=O)cc1)Cc1ccccc1)Cc1ccccc1` ; value = < 0.4

----------
Species: Homo sapiens
Assay: Selectivity index, ratio of Ki for inhibition of human CA1 to Ki for inhibition of human CA12
Parameter: Ratio Ki

Consider the following illustrative entries.
NS(=O)(=O)c1ccc(CCNCc2ccc(F)cc2)cc1    1.9
NS(=O)(=O)c1ccc(CCNCc2ccco2)cc1    1.2
CCCCCCCCN(CCCCCCCC)CCC(=O)N(CCc1ccc(S(N)(=O)=O)cc1)Cc1ccccc1    0.7
NCCCN(CCc1ccccc1)CC(=O)N(CCc1ccc(S(N)(=O)=O)cc1)Cc1ccc(F)cc1    752
NS(=O)(=O)c1ccc(CCN(Cc2ccco2)C(=O)CN(CCC(=O)O)CCc2ccccc2)cc1    11.2
N#CCCN(CCc1ccccc1)CC(=O)N(CCc1ccc(S(N)(=O)=O)cc1)Cc1ccc(F)cc1    69.8
CCCCCCN(CCCCCC)CC(=O)N(CCC(=O)O)CCc1ccc(S(N)(=O)=O)cc1    28.8
NS(=O)(=O)c1ccc(CCNCc2ccc3ccccc3c2)cc1    5.8

a: CCCCCCN(CCCCCC)CC(=O)N(CCc1ccc(S(N)(=O)=O)cc1)Cc1ccccc1
b: CCCCCN(CCCCC)CCC(=O)N(CCc1ccc(S(N)(=O)=O)cc1)Cc1ccccc1
For a and b , which recorded Ratio Ki is lower? Lab log: write the label of the selected item as the result.
b

1: CCCCCCN(CCCCCC)CCC(=O)N(CCc1ccc(S(N)(=O)=O)cc1)Cc1ccccc1
2: N#CCCNCCc1ccc(S(N)(=O)=O)cc1
3: CCN(CCC(=O)N(CCc1ccc(S(N)(=O)=O)cc1)Cc1ccccc1)Cc1ccccc1
4: CCN(CC)CC(=O)N(CCc1ccc(S(N)(=O)=O)cc1)Cc1ccccc1
Write the entries in order, lowest recorded Ratio Ki first. Write the labels in rank order as requested.
2, 1, 3, 4

A: NS(=O)(=O)c1ccc(CCNCc2ccc([N+](=O)[O-])cc2)cc1
B: CCCCCCN(CCCCCC)CC(=O)N(CCC#N)CCc1ccc(S(N)(=O)=O)cc1
For A and B , which recorded Ratio Ki is lower? Lab log: write the label of the selected item as the result.
A
(A: 2.9, B: 46)
